Assay: Drug metabolism in mouse liver microsomes assessed as demethylation at 5 ug/ml after 1 hr at 37 degC by reverse phase HPLC method
Assay type: ADME
parameter: Drug metabolism (%)

{"compound": "CCc1nc(N)nc(N)c1C#CCc1cc(-c2ccncc2)ccc1OC", "Drug metabolism, %": 19.7}

1: CCc1nc(N)nc(N)c1C#CC(C)c1cc(OC)cc(-c2ccncc2)c1 (centres undefined)
2: CCc1nc(N)nc(N)c1C#CCc1cc(OC)cc(-c2ccncc2)c1
Q: Which has the smaller recorded Drug metabolism, 1 or 2 ? Refer to your chosen entry by its label in the reply.
A: 2

---

solubility kinetic values, listed per item
Experiment: Kinetic solubility of the compound
Type: physicochemical
Details: read-out: Kinetic_solubility
Answer in µg/mL, number only, no unit symbol.

{"molecule": "COc1cc(-c2ccccc2)cc(C(C)C#Cc2c(C)nc(N)nc2N)c1 (centres undefined)", "solubility kinetic [µg/mL]": 20}

Note: attention shifts to another entry.
Q: Which solubility kinetic reading was recorded for the molecule COc1cc(C(C)C#Cc2c(C)nc(N)nc2N)cc(N2CCNCC2)c1 (centres undefined) ?
A: 60
